- protocol-details: Inhibition of ERK phosphorylation in human KYSE520 cells incubated for 2 hrs by TR-FRET assay
- Assay type: cell-based
- test-parameters: KYSE-520, 2 h
reported-metric: pIC50
Give bare numbers, as −log10 of the molar value.

{"columns": ["compound-structure-string", "reported-metric", "value-measured"],
 "data": [
  ["NC[C@]1(c2ccsc2)[C@@H]2CCN(c3cnc4c(-c5cccc(Cl)c5Cl)n[nH]c4n3)C[C@@H]21", "pIC50", 7.00],
  ["Cc1csc([C@@]2(CN)[C@@H]3CCN(c4nc5nc(Sc6cccnc6C(F)(F)F)cnc5[nH]4)C[C@@H]32)n1", "pIC50", 6.68],
  ["Cc1csc([C@@]2(CN)[C@@H]3CCN(c4cnc5c(-c6ccc7nc(C)sc7c6Cl)n[nH]c5n4)C[C@@H]32)n1", "pIC50", 8.40],
  ["Cc1csc([C@@]2(CN)[C@@H]3CCN(c4cnc(Sc5cccnc5C(F)(F)F)c(N)n4)C[C@@H]32)n1", "pIC50", 8.05],
  ["Cc1csc([C@@]2(CN)[C@@H]3CN(c4cnc5c(-c6ccn7nccc7c6Cl)n[nH]c5n4)C[C@@H]32)n1", "pIC50", 7.19],
  ["Cc1csc([C@]2(CN)[C@@H]3CCN(c4cnc5c(-c6cccc(Cl)c6Cl)n[nH]c5n4)C[C@@H]32)n1", "pIC50", 7.55],
  ["Cc1nc(N2CCC3(CC2)CO[C@@H](C)[C@H]3N)c(CO)nc1-c1cccc(Cl)c1Cl", "pIC50", 7.66],
  ["Cc1cccc([C@@]2(CN)[C@@H]3CN(c4cnc5c(-c6ccc7nn(C)cc7c6Cl)n[nH]c5n4)C[C@@H]32)n1", "pIC50", 7.05]
]}

Summary for this compound, `NC[C@]1(c2ccccn2)[C@@H]2CCN(c3cnc4c(-c5cccc(Cl)c5Cl)n[nH]c4n3)C[C@@H]21` : pIC50 is 7.38

###

- protocol-details: AUC in Sprague-Dawley rat plasma at 1 mg/kg,po administered as 50:50 PEG400/Labrasol formulation and measured upto 24 hrs by LC-MS/MS analysis
- Assay type: ADME, organism-based
- Design: dose 1 mg/kg, time < 24 hrs, route po
reported-metric: AUC at 24 h (µM·h)
Give bare numbers, in µM·h.

// `Cc1csc([C@@]2(CN)[C@@H]3CN(c4cnc5c(-c6ccc7nn(C)cc7c6Cl)n[nH]c5n4)C[C@@H]32)n1` : AUC at 24 h value = 0.05

###

- protocol-details: Volume of distribution at steady state in Sprague-Dawley rat plasma at 0.5 mg/kg, iv and measured upto 24 hrs by LC-MS/MS analysis
- Type: ADME, organism-based
- test-parameters: read-out: Vdss
reported-metric: Vd (L/kg)
Numbers only, in L/kg.

Value of Vd reported for the molecule `Cc1csc([C@@]2(CN)[C@@H]3CN(c4cnc5c(-c6ccc7nn(C)cc7c6Cl)n[nH]c5n4)C[C@@H]32)n1` is 1

###

- protocol-details: Kinetic solubility of compound in FaSSGF by LCMS analysis
- Format: ADME
- test-parameters: read-out: Kinetic_solubility
reported-metric: solubility kinetic (µM)
One number for each entry, in µM.

Measured solubility kinetic, `Cc1csc([C@@]2(CN)[C@@H]3CN(c4cnc5c(-c6ccc7nn(C)cc7c6Cl)n[nH]c5n4)C[C@@H]32)n1` : 175

###

- protocol-details: Kinetic solubility of compound in FaSSIF by LCMS analysis
- Type: ADME
- test-parameters: read-out: Kinetic_solubility
reported-metric: solubility kinetic (µM)
Answers are plain numbers, in µM.

Reported solubility kinetic of `Cc1csc([C@@]2(CN)[C@@H]3CN(c4cnc5c(-c6ccc7nn(C)cc7c6Cl)n[nH]c5n4)C[C@@H]32)n1` : 124

All figures here come from ChEMBL document CHEMBL5257132.
